target: ABCB1 (Homo sapiens); experiment: JC-1 efflux inhibition dose response, flow cytometry, Jurkat-DNR cells; details: IC50 ABCB1 (efflux inhibition of JC-1 substrate), Jurkat-DNR cells over-expressing ABCB1; averages of two to four replicates
Checkbox rule: IC50 lower than 6 µM = rule met; IC50 not lower than 6 µM = rule not met.

Entry smiles	Label value
O=C(c1ccoc1)N1CCCN(c2cc(-c3ccco3)nc3cc(-c4ccccc4)nn23)C1	rule not met
Cc1cccc(-c2cc3nc(-c4ccco4)cc(N4CCN(C(=O)c5ccoc5)CC4)n3n2)c1	rule met
CNCCCN(C)c1cc(-c2ccco2)nc2cc(-c3ccccc3)nn12	rule not met
O=C(c1ccco1)N1CCN(c2cc(-c3ccco3)nc3cc(-c4ccccc4)nn23)CC1	rule not met
c1ccc(-c2cc3nc(-c4ccco4)cc(N4CCNCC4)n3n2)cc1	rule not met
O=C(c1ccoc1)N1CCN(c2cc(-c3ccccc3)nc3cc(-c4ccc(Br)cc4)nn23)CC1	rule met
O=C(c1ccoc1)N1CCN(c2cc(-c3ccc(F)cc3)nc3cc(-c4ccccc4)nn23)CC1	rule not met
c1ccc(CN2CCN(c3cc(-c4ccco4)nc4cc(-c5ccccc5)nn34)CC2)cc1	rule not met
O=C(c1ccoc1)N1CCN(c2cc(-c3ccc(F)cc3)nc3cc(-c4cccc(Cl)c4)nn23)CC1	rule met
O=C(c1ccco1)N1CCN(c2cc(-c3ccccc3)nc3cc(-c4ccc(Cl)cc4)nn23)CC1	rule met

* * *

target: ABCG2 (Homo sapiens, UniProt Q9UNQ0); experiment: JC-1 efflux inhibition dose response, flow cytometry, Ig-MXP3 cells; conditions: read-out: IC50 ABCG2 (efflux inhibition of JC-1 substrate); Ig-MXP3 cells over-expressing ABCG2; averages of two to four replicates
Sequence (Q9UNQ0 whole entry): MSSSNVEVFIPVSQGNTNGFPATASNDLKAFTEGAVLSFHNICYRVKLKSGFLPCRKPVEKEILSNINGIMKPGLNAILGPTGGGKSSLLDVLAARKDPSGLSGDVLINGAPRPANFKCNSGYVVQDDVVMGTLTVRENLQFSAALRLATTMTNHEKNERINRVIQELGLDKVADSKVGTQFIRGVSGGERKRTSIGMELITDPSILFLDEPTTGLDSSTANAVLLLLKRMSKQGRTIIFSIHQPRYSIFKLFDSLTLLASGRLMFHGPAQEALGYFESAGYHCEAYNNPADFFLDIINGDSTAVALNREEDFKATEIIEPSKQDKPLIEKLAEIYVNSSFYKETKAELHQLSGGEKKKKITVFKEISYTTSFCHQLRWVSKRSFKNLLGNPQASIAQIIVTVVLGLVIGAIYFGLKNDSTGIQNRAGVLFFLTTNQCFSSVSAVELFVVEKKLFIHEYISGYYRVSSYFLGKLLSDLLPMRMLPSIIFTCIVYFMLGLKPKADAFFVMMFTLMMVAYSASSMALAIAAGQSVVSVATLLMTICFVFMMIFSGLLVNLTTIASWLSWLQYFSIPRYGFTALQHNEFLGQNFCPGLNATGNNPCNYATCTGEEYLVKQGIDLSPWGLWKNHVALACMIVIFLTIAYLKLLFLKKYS
Listing of recorded IC50 by entry.

Compound	Target system	Unit of measurement	IC50
COc1cc2c(cc1OC)CN(CCc1ccc(NC(=O)c3cccc(/C=c4\[nH]c(=O)/c(=C/c5ccccc5)n(C)c4=O)c3)cc1)CC2 [Compound 2, reference compound]	ABCG2 (Homo sapiens, UniProt Q9UNQ0)	nM	2270
COc1ccccc1-c1cc2nc(-c3ccccc3)cc(N3CCN(C(=O)c4ccccc4)CC3)n2n1	ABCG2 (Homo sapiens, UniProt Q9UNQ0)	nM	760
O=C(c1ccco1)N1CCN(c2cc(-c3ccccc3)nc3cc(-c4cccc(Cl)c4)nn23)CC1	ABCG2 (Homo sapiens, UniProt Q9UNQ0)	nM	960
Cc1cc(C(=O)N2CCN(c3cc(-c4ccco4)nc4cc(-c5ccccc5)nn34)CC2)c(C)o1	ABCG2 (Homo sapiens, UniProt Q9UNQ0)	nM	3370

* * *

Target: UniProt:P08183
Assay: JC-1 efflux inhibition dose response, flow cytometry, Jurkat-DNR cells
Conditions: IC50 ABCB1 (efflux inhibition of JC-1 substrate), Jurkat-DNR cells over-expressing ABCB1; averages of two to four replicates
Description: The HyperCyt® high throughput flow cytometry platform (IntelliCyt™, Albuquerque, N. Mex.) was used to sequentially sample cells from 384-well microplates (2 μL/sample) for flow cytometer presentation at a rate of 40 samples per minute.^62-63 Flow cytometric analysis was performed on a CyAn™ flow cytometer (Beckman-Coulter, Fullerton, Calif.). The resulting time-gated data files were analyzed with HyperView® software to determine compound activity in each well. […]
Listing of recorded IC50 by entry.

Compound	Unit of measurement	Relation	IC50
CN(C)C(=O)CCSC(SCCC(=O)O)c1cccc(/C=C/c2ccc3ccc(Cl)cc3n2)c1 (stereo not shown) [Compound 5, reference compound]	µM	>	50
COc1ccc(-c2cc3nc(-c4ccco4)cc(N4CCN(C(=O)c5ccoc5)CC4)n3n2)cc1	µM	=	3.45
O=C1CN(c2cc(-c3ccco3)nc3cc(-c4ccccc4)nn23)CCN1c1ccccc1	µM	=	4.06
O=C(c1ccoc1)N1CCN(c2cc(-c3cccs3)nc3cc(-c4ccccc4)nn23)CC1	µM	=	3.46

* * *

molecular target: ABCB1 / ABCG2 (Homo sapiens, UniProt Q9UNQ0); experiment: JC-1 efflux inhibition dose response, flow cytometry, Ig-MXP3 cells; details: human, probe JC-1 (1 µM), ~Fold G2 Selective (B1/G2), quotient of average ABCB1 IC50 and average ABCG2 IC50, efflux assay
Sequence (Q9UNQ0 whole entry): as above

Molecule	Target system	selectivity ratio at 30 min
O=C(Cc1ccccc1)N1CCN(c2cc(-c3ccccc3)nc3cc(-c4cccc(Cl)c4)nn23)CC1 [Compound 24]	ABCB1 / ABCG2 (Homo sapiens, UniProt Q9UNQ0)	0.8
O=C(c1ccccc1)N1CCN(c2cc(-c3ccccc3)nc3cc(-c4cccc(F)c4)nn23)CC1 [Compound 42]	ABCB1 / ABCG2 (Homo sapiens, UniProt Q9UNQ0)	1.9
CC(C)(C)c1cc(N2CCN(C(=O)c3ccoc3)CC2)n2nc(-c3ccccc3)cc2n1 [Compound 49]	ABCB1 / ABCG2 (Homo sapiens, UniProt Q9UNQ0)	0.5
O=C(c1ccoc1)N1CCN(c2cc(-c3ccco3)nc3cc(-c4ccccc4)nn23)CC1 [Compound 1]	ABCB1 / ABCG2 (Homo sapiens, UniProt Q9UNQ0)	36
O=C(c1ccoc1)N1CCN(c2cc(-c3ccco3)nc3cc(-c4cccc(Cl)c4)nn23)CC1 [Compound 53]	ABCB1 / ABCG2 (Homo sapiens, UniProt Q9UNQ0)	2.5
CC(=O)N1CCN(c2cc(-c3ccco3)nc3cc(-c4cccc(Cl)c4)nn23)CC1 [Compound 87]	ABCB1 / ABCG2 (Homo sapiens, UniProt Q9UNQ0)	1.4
CC1CN(C(=O)c2ccoc2)CCN1c1cc(-c2ccco2)nc2cc(-c3ccccc3)nn12 (stereo not shown) [Compound 86]	ABCB1 / ABCG2 (Homo sapiens, UniProt Q9UNQ0)	0.7
O=C(c1ccncc1)N1CCN(c2cc(-c3ccccc3)nc3cc(-c4cccc(Cl)c4)nn23)CC1 [Compound 21]	ABCB1 / ABCG2 (Homo sapiens, UniProt Q9UNQ0)	1.1
O=C(c1ccoc1)N1CCN(c2cc(-c3ccco3)nc3cc(-c4cccc(-c5ccco5)c4)nn23)CC1 [Compound 60]	ABCB1 / ABCG2 (Homo sapiens, UniProt Q9UNQ0)	4.3
c1ccc(CN2CCN(c3cc(-c4ccco4)nc4cc(-c5ccccc5)nn34)CC2)cc1 [Compound 75]	ABCB1 / ABCG2 (Homo sapiens, UniProt Q9UNQ0)	2.9
Cc1cccc(-c2cc3nc(-c4ccco4)cc(N4CCN(C(=O)c5ccoc5)CC4)n3n2)c1 [Compound 58]	ABCB1 / ABCG2 (Homo sapiens, UniProt Q9UNQ0)	5.9
O=C(c1ccoc1)N1CCN(c2cc(-c3ccncc3)nc3cc(-c4cccc(Cl)c4)nn23)CC1 [Compound 31]	ABCB1 / ABCG2 (Homo sapiens, UniProt Q9UNQ0)	2.5
COc1cccc(C(=O)N2CCN(c3cc(-c4ccccc4)nc4cc(-c5cccc(Cl)c5)nn34)CC2)c1 [Compound 15]	ABCB1 / ABCG2 (Homo sapiens, UniProt Q9UNQ0)	0.6
COc1ccc(-c2cc(N3CCN(C(=O)c4ccoc4)CC3)n3nc(-c4ccccc4)cc3n2)cc1 [Compound 45]	ABCB1 / ABCG2 (Homo sapiens, UniProt Q9UNQ0)	1.9
CN(CCN(C)c1cc(-c2ccco2)nc2cc(-c3ccccc3)nn12)C(=O)c1ccoc1 [Compound 80]	ABCB1 / ABCG2 (Homo sapiens, UniProt Q9UNQ0)	1.3
COc1ccccc1-c1cc(N2CCN(C(=O)c3ccoc3)CC2)n2nc(-c3ccccc3)cc2n1 [Compound 44]	ABCB1 / ABCG2 (Homo sapiens, UniProt Q9UNQ0)	1.2

* * *

Listing of recorded IC50 by entry.
Target: ABCB1 (Homo sapiens, UniProt P08183)
Sequence (P08183 whole entry): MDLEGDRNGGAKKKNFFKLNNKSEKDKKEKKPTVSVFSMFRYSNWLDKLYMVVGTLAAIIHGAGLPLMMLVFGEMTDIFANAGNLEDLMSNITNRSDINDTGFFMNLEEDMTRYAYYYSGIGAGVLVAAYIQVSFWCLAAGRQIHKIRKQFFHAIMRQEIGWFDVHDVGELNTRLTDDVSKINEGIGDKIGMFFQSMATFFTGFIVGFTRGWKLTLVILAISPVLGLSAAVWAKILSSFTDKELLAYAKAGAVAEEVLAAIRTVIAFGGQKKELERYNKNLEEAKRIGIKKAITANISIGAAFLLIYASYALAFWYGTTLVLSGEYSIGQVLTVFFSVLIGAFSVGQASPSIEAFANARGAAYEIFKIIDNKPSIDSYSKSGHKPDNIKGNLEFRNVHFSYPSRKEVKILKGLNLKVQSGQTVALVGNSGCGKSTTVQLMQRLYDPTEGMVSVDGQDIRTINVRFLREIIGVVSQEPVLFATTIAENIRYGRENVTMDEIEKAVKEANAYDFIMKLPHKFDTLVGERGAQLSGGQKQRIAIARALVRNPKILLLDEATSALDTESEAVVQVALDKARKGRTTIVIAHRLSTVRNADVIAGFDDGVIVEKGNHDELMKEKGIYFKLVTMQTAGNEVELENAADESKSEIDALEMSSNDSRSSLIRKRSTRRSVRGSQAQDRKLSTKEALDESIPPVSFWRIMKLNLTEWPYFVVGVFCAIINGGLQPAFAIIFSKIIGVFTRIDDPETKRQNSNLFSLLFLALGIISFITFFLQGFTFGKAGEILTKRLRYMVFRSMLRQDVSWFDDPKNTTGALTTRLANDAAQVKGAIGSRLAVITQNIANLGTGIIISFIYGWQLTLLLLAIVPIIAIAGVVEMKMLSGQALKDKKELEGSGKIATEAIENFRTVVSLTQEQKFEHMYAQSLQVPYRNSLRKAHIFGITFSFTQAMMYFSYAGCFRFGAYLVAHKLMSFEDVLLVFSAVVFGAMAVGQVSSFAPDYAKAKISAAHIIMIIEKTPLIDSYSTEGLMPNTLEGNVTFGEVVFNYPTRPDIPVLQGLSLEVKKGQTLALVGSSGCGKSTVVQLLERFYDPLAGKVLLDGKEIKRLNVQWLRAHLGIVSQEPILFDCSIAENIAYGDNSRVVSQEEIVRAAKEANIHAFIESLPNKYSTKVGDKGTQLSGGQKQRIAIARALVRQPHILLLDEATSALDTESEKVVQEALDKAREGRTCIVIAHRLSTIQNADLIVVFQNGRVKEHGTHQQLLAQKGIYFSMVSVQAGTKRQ
Test: JC-1 efflux inhibition dose response, flow cytometry, Jurkat-DNR cells
Conditions: IC50 ABCB1 (efflux inhibition of JC-1 substrate), Jurkat-DNR cells over-expressing ABCB1; averages of two to four replicates
Procedure: The HyperCyt® high throughput flow cytometry platform (IntelliCyt™, Albuquerque, N. Mex.) was used to sequentially sample cells from 384-well microplates (2 μL/sample) for flow cytometer presentation at a rate of 40 samples per minute.^62-63 Flow cytometric analysis was performed on a CyAn™ flow cytometer (Beckman-Coulter, Fullerton, Calif.). The resulting time-gated data files were analyzed with HyperView® software to determine compound activity in each well. […]

Entry smiles	Relation	IC50 [µM]
O=C(c1ccoc1)N1CCN(c2cc(-c3ccco3)nc3cc(-c4cccc(Cl)c4)nn23)CC1	=	6.42
O=C(c1cccnc1)N1CCN(c2cc(-c3ccccc3)nc3cc(-c4cccc(Cl)c4)nn23)CC1	=	0.57
O=C(c1ccoc1)N1CCN(c2cc(-c3ccccc3)nc3cc(-c4cccc(Cl)c4)nn23)CC1	=	8.58
O=S(=O)(c1ccccc1)N1CCN(c2cc(-c3ccccc3)nc3cc(-c4cccc(Cl)c4)nn23)CC1	>	50

* * *

Listing of recorded EC50 by entry.
system: ABCB1 over-expressing Jurkat-DNR cells; assay: Chemoreversal assay: potentiation of daunorubicin (DNR) killing; type: cell-based; settings: constant 100 nM DNR, varied inhibitor dose, read-out: CR50 ABCB1
Value kind: EC50

Compound	Target system	Value kind	Reported measurement
O=C(c1ccncc1)N1CCN(c2cc(-c3ccccc3)nc3cc(-c4cccc(Cl)c4)nn23)CC1 [Compound 21]	ABCB1 over-expressing Jurkat-DNR cells	EC50	0.25 µM
CC(=O)N1CCN(c2cc(-c3ccco3)nc3cc(-c4ccccc4)nn23)CC1 [Compound 74]	ABCB1 over-expressing Jurkat-DNR cells	EC50	0.19 µM
COc1cccc(-c2cc3nc(-c4ccco4)cc(N4CCN(C(C)=O)CC4)n3n2)c1 [Compound 88]	ABCB1 over-expressing Jurkat-DNR cells	EC50	0.32 µM
COc1ccc(-c2cc3nc(-c4ccccc4)cc(N4CCN(C(=O)c5ccoc5)CC4)n3n2)cc1 [Compound 36]	ABCB1 over-expressing Jurkat-DNR cells	EC50	0.23 µM
COc1ccccc1-c1cc(N2CCN(C(=O)c3ccoc3)CC2)n2nc(-c3ccccc3)cc2n1 [Compound 44]	ABCB1 over-expressing Jurkat-DNR cells	EC50	0.17 µM
O=C(c1cccnc1)N1CCN(c2cc(-c3ccccc3)nc3cc(-c4cccc(Cl)c4)nn23)CC1 [Compound 20]	ABCB1 over-expressing Jurkat-DNR cells	EC50	0.17 µM
